- assay_target: Neutrophil collagenase (Homo sapiens)
- Sequence (P22894 whole entry): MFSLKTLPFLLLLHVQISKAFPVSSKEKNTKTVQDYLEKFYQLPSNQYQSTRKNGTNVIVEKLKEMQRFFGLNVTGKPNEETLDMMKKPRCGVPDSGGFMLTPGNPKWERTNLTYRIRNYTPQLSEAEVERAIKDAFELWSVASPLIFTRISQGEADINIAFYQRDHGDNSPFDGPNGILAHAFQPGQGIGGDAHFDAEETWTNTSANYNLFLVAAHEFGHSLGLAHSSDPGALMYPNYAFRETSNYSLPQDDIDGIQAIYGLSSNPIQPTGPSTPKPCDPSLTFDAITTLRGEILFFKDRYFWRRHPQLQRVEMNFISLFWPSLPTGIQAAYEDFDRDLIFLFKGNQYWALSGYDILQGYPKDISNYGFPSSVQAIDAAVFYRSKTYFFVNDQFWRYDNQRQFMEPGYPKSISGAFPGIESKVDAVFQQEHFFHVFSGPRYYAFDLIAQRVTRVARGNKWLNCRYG
- procedure_text: Inhibition of MMP-8 (unknown origin)
# key: entry, value: Ki
Express it in nM; write the number only.

- compound: "CN1C(=O)N(C[C@H](C(=O)NO)[C@H](CC2CCCC2)C(=O)N2CCCCC2)C(=O)C1(C)C"
  assay_target: "Neutrophil collagenase (Homo sapiens)"
  Ki [nM]: 4

Output measured Ki for this item: C=CC[C@H](C(=O)NO)C(CC(C)C)C(=O)N[C@@H](Cc1ccccc1)C(=O)NC (some centres not stated)
3

* * *

- procedure_text: Half life in Sprague-Dawley rat at 33 mg/kg, po
- Format: ADME, organism-based
- run_conditions: in vivo
outcome_measure: half-life (h)
Express it in h; write the number only.

- mol: "O=C(NCCCCCNS(=O)(=O)c1ccc(Oc2ccccc2)cc1)P(=O)(O)O"
  half-life [h]: 10.5

Consider the record given below.
Output measured half-life for this item: `O=C(NCCCCCCNS(=O)(=O)c1ccc(Oc2ccccc2)cc1)P(=O)(O)O`
5.8
